The origin of these recorded values is ChEMBL document CHEMBL1142666.

Test system: CCRF-CEM
RUN_DESCRIPTION: Effective concentration required to inhibit HIV-2 ROD in CEM cell culture
Assay type: functional, cell-based
CONDITION_DETAILS: Homo sapiens
pEC50: −log10 of the molar value.
REPORTED_METRIC: pEC50

Consider the following illustrative entries.
The measured pEC50 associated with `COC(=O)CC(=O)NC1=CS(=O)(=O)O[C@@]12[C@@H](CO[Si](C)(C)C(C)(C)C)O[C@@H](n1cc(C)c(=O)n(C)c1=O)[C@@H]2O[Si](C)(C)C(C)(C)C` reads < 4.60

The measured pEC50 associated with `Cc1cn([C@@H]2O[C@H](CO[Si](C)(C)C(C)(C)C)[C@@]3(OS(=O)(=O)C=C3NCC(N)=O)[C@H]2O[Si](C)(C)C(C)(C)C)c(=O)n(C)c1=O` reads < 5.70

Alright, here's another compound for you.
The measured pEC50 associated with `COC(=O)NC1=CS(=O)(=O)O[C@@]12[C@@H](CO[Si](C)(C)C(C)(C)C)O[C@@H](n1cc(C)c(=O)n(C)c1=O)[C@@H]2O[Si](C)(C)C(C)(C)C` reads < 4.70
